tested on: Ba/F3 LMNA-NTRK1-G595R cells; test: Assay for inhibiting the proliferation of Ba/F3 LMNA-NTRK1-G595R cells (CCK-8); type: cell-based; details: Mus musculus, BaF3
assay.metric: IC50

// solved cases for IC50 follow
* CCn1cc(C(=O)Nc2cc(F)c(Oc3ccnc4cc(OCCOC)c5c(c34)OCCO5)cc2C)c(=O)n(-c2ccc(F)cc2)c1=O | ≤ 50 nM
* COc1cc2nccc(Oc3ccc(NC(=O)c4cn(C)c(=O)n(-c5ccc(F)cc5)c4=O)c(F)c3)c2c2c1OCCO2 | ≤ 50 nM
* Cn1cc(C(=O)Nc2ccc(Oc3ccnc4cc(OCCCN5CCOCC5)c5c(c34)OCCO5)cc2Cl)c(=O)n(-c2ccc(F)cc2)c1=O | 50 to 200 nM
* Cn1cc(C(=O)Nc2ccc(Oc3ccnc4cc(OCCCN5CCCCC5)c5c(c34)OCCO5)c(F)c2)c(=O)n(-c2ccc(F)cc2)c1=O | 50 to 200 nM
* CC(C)n1cc(C(=O)Nc2ccc(Oc3ccnc4cc(OCCCN(C)C5CCC5)c5c(c34)OCCO5)c(F)c2)c(=O)n(-c2ccc(F)cc2)c1=O | 200 to 1000 nM

Given item `CCn1cc(C(=O)Nc2ccc(Oc3ccnc4cc(OCCOC)c5c(c34)OCCO5)cc2)c(=O)n(-c2ccc(F)cc2)c1=O` , the value recorded as its IC50 is 200 to 1000 nM

* * *

pIC50: −log10 of the molar value.
These records show pIC50 for TRKA kinase (Homo sapiens (Human), UniProt P04629).

// solved cases for pIC50 follow
- CCOc1ccn(-c2cccc(F)c2)c(=O)c1C(=O)Nc1ccc(Oc2ccnc3cc(OC)c4c(c23)OCCO4)c(F)c1: 6.30 to 7.30
- CCOc1ccn(-c2ccc(F)cc2)c(=O)c1C(=O)Nc1cc(F)c(Oc2ccnc3cc(OC)c4c(c23)OCCO4)cc1Cl: > 7.30
- CCOc1ccn(-c2ccc(F)cc2)c(=O)c1C(=O)Nc1ccc(Oc2ccnc3cc(OCC(C)(C)O)c4c(c23)OCCO4)cc1Cl: > 7.30

// next item, pIC50 requested
pIC50 of `CCn1cc(C(=O)Nc2cc(F)c(Oc3ccnc4ccc5c(c34)OCCO5)cc2C)c(=O)n(-c2ccc(F)cc2)c1=O` , assay on TRKA kinase (Homo sapiens (Human), UniProt P04629), is 6.30 to 7.30

* * *

Quick list: IC50 per entry.
molecular target: VEGFR-2 kinase (Homo sapiens (Human))
Sequence (P35968 20-1356): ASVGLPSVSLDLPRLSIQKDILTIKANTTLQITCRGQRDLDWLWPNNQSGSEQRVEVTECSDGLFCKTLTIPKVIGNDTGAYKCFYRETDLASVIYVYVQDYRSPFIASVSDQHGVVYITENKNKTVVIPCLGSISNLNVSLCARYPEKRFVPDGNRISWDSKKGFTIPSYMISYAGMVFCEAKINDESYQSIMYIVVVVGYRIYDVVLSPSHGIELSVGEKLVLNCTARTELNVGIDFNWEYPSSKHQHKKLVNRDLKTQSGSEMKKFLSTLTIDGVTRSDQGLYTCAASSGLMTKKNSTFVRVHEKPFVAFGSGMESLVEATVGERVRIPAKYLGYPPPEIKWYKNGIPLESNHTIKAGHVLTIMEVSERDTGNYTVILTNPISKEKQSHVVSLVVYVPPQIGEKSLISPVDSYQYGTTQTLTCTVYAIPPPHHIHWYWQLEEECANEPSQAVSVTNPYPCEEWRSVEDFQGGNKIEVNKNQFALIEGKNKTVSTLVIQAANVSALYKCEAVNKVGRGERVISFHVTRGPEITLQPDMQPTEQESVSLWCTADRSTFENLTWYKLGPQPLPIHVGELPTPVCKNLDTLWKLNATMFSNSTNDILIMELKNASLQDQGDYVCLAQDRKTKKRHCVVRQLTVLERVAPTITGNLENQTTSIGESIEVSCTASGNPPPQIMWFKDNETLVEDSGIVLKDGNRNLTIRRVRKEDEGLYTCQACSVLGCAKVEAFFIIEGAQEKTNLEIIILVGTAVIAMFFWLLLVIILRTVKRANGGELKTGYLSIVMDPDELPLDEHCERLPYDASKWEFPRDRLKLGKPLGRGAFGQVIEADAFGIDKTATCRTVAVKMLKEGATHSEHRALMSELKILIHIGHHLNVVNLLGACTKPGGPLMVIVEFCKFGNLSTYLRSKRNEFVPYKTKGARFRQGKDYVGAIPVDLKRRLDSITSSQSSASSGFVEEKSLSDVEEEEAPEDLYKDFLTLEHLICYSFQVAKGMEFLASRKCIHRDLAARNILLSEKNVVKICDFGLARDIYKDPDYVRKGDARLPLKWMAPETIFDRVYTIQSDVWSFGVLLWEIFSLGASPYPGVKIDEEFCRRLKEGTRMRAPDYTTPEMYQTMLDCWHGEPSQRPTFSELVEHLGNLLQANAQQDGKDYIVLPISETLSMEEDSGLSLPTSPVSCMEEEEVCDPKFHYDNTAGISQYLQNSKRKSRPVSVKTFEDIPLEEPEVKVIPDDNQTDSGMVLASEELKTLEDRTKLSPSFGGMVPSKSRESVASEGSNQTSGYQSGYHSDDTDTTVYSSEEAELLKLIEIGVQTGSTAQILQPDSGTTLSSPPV

* COCCOc1cc2nccc(Oc3ccc(NC(=O)c4cn(C)c(=O)n(-c5ccc(F)cc5)c4=O)c(F)c3)c2c2c1OCCO2 [Example 155] | 500 to 5000 nM
* CN(C)CCCOc1cc2nccc(Oc3ccc(NC(=O)c4cn(C)c(=O)n(-c5ccc(F)cc5)c4=O)cc3F)c2c2c1OCCO2 [Example 86] | 50 to 500 nM
* CCOc1cn(-c2ccc(F)cc2C)nc1C(=O)Nc1ccc(Oc2ncnc3cc(OCCCN4CCOCC4)c4c(c23)OCCO4)c(F)c1 [Example 12] | 500 to 5000 nM

Given item COc1cc2nccc(Oc3ccc(NC(=O)c4cccn(-c5ccc(F)cc5)c4=O)cc3F)c2c2c1OCCO2 [Example 17] , the value recorded as its IC50 is ≤ 50 nM

Given item Cn1cc(C(=O)Nc2ccc(Oc3ccnc4cc(OC5CCOC5)c5c(c34)OCCO5)c(F)c2)c(=O)n(-c2ccc(F)cc2)c1=O (stereo not shown) [Example 90] , the value recorded as its IC50 is 50 to 500 nM

Given item COCCOc1cc2nccc(Oc3ccc(NC(=O)c4cccn(-c5ccc(F)cc5)c4=O)cc3F)c2c2c1OCCO2 [Example 34] , the value recorded as its IC50 is ≤ 50 nM

Given item CN1CCN(CCCOc2cc3nccc(Oc4ccc(NC(=O)c5cn(C)c(=O)n(-c6ccc(F)cc6)c5=O)cc4F)c3c3c2OCCO3)CC1 [Example 74] , the value recorded as its IC50 is ≤ 50 nM
